# system-under-test: CIB1 and αIIb interaction (CIB1-GST : F-αIIb peptide) (Homo sapiens, UniProt Q99828)
# Construct: made in house; host or cells: BL-21 plus RIL cells (E. coli)
# procedure-text: FP assay, 1536-well qHTS format (primary and confirmatory screen)
# Assay type: binding
# protocol-conditions: qHTS primary screen hits, Table S2; negative sign = inhibitory curve; several classes where COUNT > 1
Assign class by Curve Class: not lower than -2 means Yes; lower than -2 means No.

O=S(=O)(Nc1cc(O)cc2cccnc12)c1ccc(Cl)s1	No

Please tell me: is the compound CO[C@@]1(NC(=O)CSCC#N)C(=O)N2C(C(=O)[O-])=C(CSc3nnnn3C)CS[C@@H]21.[Na+] at or over -2 in terms of Curve Class?
No

Please tell me: is the compound C[C@](N)(Cc1ccc(O)c(O)c1)C(=O)O at or over -2 in terms of Curve Class?
No

Please tell me: is the compound O=C(O)c1csc(-n2cc(Cc3ccc(CO)cc3)c(-c3cccc(-c4ccccc4)c3)n2)n1 at or over -2 in terms of Curve Class?
No

Please tell me: is the compound CCCc1ccc(-c2csc(NC(=O)c3ccncc3NS(=O)(=O)c3ccc(C)cc3)n2)cc1.O=C(O)C(F)(F)F at or over -2 in terms of Curve Class?
No

Please tell me: is the compound O=S(=O)(c1ccc2nc(Cl)c(Cl)nc2c1)N1CCN(S(=O)(=O)c2c(F)cccc2F)CC1 at or over -2 in terms of Curve Class?
Yes

Please tell me: is the compound CN(C)c1ccc(NC(=S)N/N=C2\C(=O)Nc3ccccc32)cc1.O=C(O)C(F)(F)F at or over -2 in terms of Curve Class?
Yes

Please tell me: is the compound Cl.O=S(=O)(Nc1nccs1)c1ccc(NCc2cc(Cl)ccc2O)cc1 at or over -2 in terms of Curve Class?
Yes

* * *

Parameter IC50: see the listing below.
# system-under-test: GST-CIB1 : F-scrambled peptide (Homo sapiens, UniProt Q99828)
# Construct: made in house; host or cells: BL-21 plus RIL cells (E. coli)
# procedure-text: FP scrambled-peptide counter screen, 1536-well format
# Assay type: binding
# protocol-conditions: counterscreen; read-out: IC50 [μM] (counterscreen)
# number only, unit µM dropped from output

Cc1cnc(-c2ccccc2C(C)C)nc1NCc1ccc(-c2ccc(F)nc2)cc1.O=C(O)C(F)(F)F	44.7
Cn1ccc(=Nc2ccc(NC(=O)c3ccc(/N=c4\ccn(C)c5ccc([N+](=O)[O-])cc45)cc3[N+](=O)[O-])cc2)cc1.O=C(O)C(F)(F)F	12.6

Please look up its IC50: CN1CCN(c2ccc(Nc3nn4c(=O)c5ccccc5nc4s3)cc2)CC1.O=C(O)C(F)(F)F
79.4

* * *

# system-under-test: GST-CIB1 : F-scrambled peptide (Homo sapiens, UniProt Q99828)
# Construct: made in house; host or cells: BL-21 plus RIL cells (E. coli)
# procedure-text: FP scrambled-peptide counter screen, 384-well format
# Assay type: binding
# protocol-conditions: F-scrambled peptide; *: Curve in opposite direction
assay-metric: 384-well COUNTERSCREEN Confirm?

O=C(Nc1nc(-c2ccccc2)cs1)c1ccncc1NS(=O)(=O)c1ccc2ccccc2c1.O=C(O)C(F)(F)F [NCGC00345031-01]	YES*
CCCCCCCCOc1ccccc1C(=O)Nc1ccc(C(=O)OCC[N+](C)(CC)CC)cc1.[Br-] [NCGC00163507-02]	YES
CCc1oc2ccccc2c1C(=O)c1cc(Br)c(O)c(Br)c1 [NCGC00013895-08]	YES

* * *

Parameter Curve Class: see the listing below.
# system-under-test: CIB1 and αIIb interaction (CIB1-GST : F-αIIb peptide) (Homo sapiens)
# Construct: made in house; host or cells: BL-21 plus RIL cells (E. coli)
# procedure-text: FP assay, 1536-well qHTS format (primary and confirmatory screen)
# Format: binding
# protocol-conditions: qHTS FP screen hits, Table S2; one class per curve where COUNT > 1; negative sign = inhibitory curve
Could you keep your reply to the number by itself?

Before answering, review these 5 worked examples.
C=C1C(=O)O[C@@H]2[C@H]3C(C)=CC(=O)C3=C(C)[C@@H](OC(=O)/C(C)=C\C)[C@H](O)[C@@H]12	-1.2
Cl.N=C(NCCCCCCNC(=N)NC(=N)Nc1ccc(Cl)cc1)NC(=N)Nc1ccc(Cl)cc1	-2.2
Cc1cc(F)ccc1S(=O)(=O)Nc1cnccc1C(=O)Nc1nc(-c2ccccc2)cs1	-2.2
O=C(O)c1csc(-n2nc(-c3ccc(F)c(F)c3)c3cccnc32)n1	-1.2
N#Cc1cnc(NS(=O)(=O)c2ccc(NC(=O)Cc3ccc(Cl)c(Cl)c3)cc2)s1.O=C(O)C(F)(F)F	-1.2

Record lookup: for CIB1 and αIIb interaction (CIB1-GST : F-αIIb peptide) (Homo sapiens), what Curve Class belongs to CC1=C(O)C(=O)C=C2C1=CC=C1[C@@]2(C)CC[C@@]2(C)[C@@H]3C[C@](C)(C(=O)O)CC[C@]3(C)CC[C@]12C ?
-3

Record lookup: for CIB1 and αIIb interaction (CIB1-GST : F-αIIb peptide) (Homo sapiens), what Curve Class belongs to COc1ccccc1C(=O)c1no[n+]([O-])c1C(=O)c1ccccc1OC.O=C(O)C(F)(F)F ?
-1.2

* * *

Parameter pIC50: see the listing below.
# system-under-test: CIB1 and αIIb interaction (CIB1-GST : F-αIIb peptide) (Homo sapiens, UniProt Q99828)
# Construct: made in house; host or cells: BL-21 plus RIL cells (E. coli)
# procedure-text: FP assay, 1536-well qHTS format (primary and confirmatory screen)
# Format: binding
# protocol-conditions: qHTS primary screen hits, Table S2; read-out: IC50
For clarity, pIC50 is expressed as the negative log10 of concentration in mol/L.

Before answering, review these 4 worked examples.
CCCCCCCCCCCC[N+](C)(C)CCOc1ccccc1.[Br-]	4.05
CC(=O)N1CCN(c2ccc(OCc3nn(C)c(C)c3-c3cccc4c(CCCOc5cccc6ccccc56)c(C(=O)O)n(Cc5cccnc5)c34)cc2)CC1	4.47
CC(=O)c1c(O)c(C)c(O)c(Cc2c(O)c3c(c(C(=O)/C=C/c4ccccc4)c2O)OC(C)(C)C=C3)c1O	4.55
Oc1cc(Cl)ccc1Oc1ccc(Cl)cc1Cl	4.00

Please look up its pIC50: Oc1c(Cl)cc(Cl)c(Cl)c1Cc1c(O)c(Cl)cc(Cl)c1Cl
4.30

Please look up its pIC50: O=C(NNC(=O)c1nc2ccccc2[nH]1)OCc1ccccc1
4.65

Please look up its pIC50: C[C@@H](NCc1cc2ccccc2[nH]1)c1cccc2ccccc12.Cl
4.67

* * *

# system-under-test: GST-CIB1 : F-scrambled peptide (Homo sapiens)
# Construct: made in house; host or cells: BL-21 plus RIL cells (E. coli)
# procedure-text: FP scrambled-peptide counter screen, 1536-well format
# Type: binding
# protocol-conditions: counterscreen
Assign class by COUNTERSCREEN Efficacy (%): not lower than -20% means Condition met; lower than -20% means Condition not met.

Some entries whose results are on file:
Fc1ccc(NC(=S)Nc2nnc(-c3ccncc3)s2)cc1C(F)(F)F.O=C(O)C(F)(F)F [NCGC00241743-01]	Condition met
O=C(O)CCNc1cc(N2CCc3ccccc3CC2)nc(-c2ccccn2)n1 [NCGC00347943-01]	Condition not met
CC(=O)NC(c1cccs1)c1cc(Br)c2cccnc2c1O (stereo not drawn) [NCGC00183685-02]	Condition met
CCN1C(=O)c2ccccc2[S+]([O-])c2ccc(C(=O)Nc3ncc(C)s3)cc21 (stereo not drawn) [NCGC00241655-01]	Condition not met
O=C(O)C(F)(F)F.O=C(O)c1ccc(O)c2ncc(N3CCC(N4CCOCC4)C3)cc12 (stereo not drawn) [NCGC00241757-01]	Condition not met

Please tell me: is the compound Cl.O=S(=O)(Nc1nccs1)c1ccc(NCc2cc(Cl)cc(Br)c2O)cc1 [NCGC00273965-01] at or over -20% in terms of COUNTERSCREEN Efficacy (%)?
Condition met

Please tell me: is the compound CN1CCC(N(Cc2cccs2)c2ccccc2)CC1 [NCGC00183847-01] at or over -20% in terms of COUNTERSCREEN Efficacy (%)?
Condition met

Please tell me: is the compound CN(C)c1cnc2c(O)cccc2c1.O=C(O)C(F)(F)F [NCGC00188745-01] at or over -20% in terms of COUNTERSCREEN Efficacy (%)?
Condition not met

Please tell me: is the compound O=C(O)Cc1ccc(CCNS(=O)(=O)c2ccc(Cl)cc2)cc1 [NCGC00165787-03] at or over -20% in terms of COUNTERSCREEN Efficacy (%)?
Condition met

* * *

# system-under-test: CIB1 and αIIb interaction (CIB1-GST : F-αIIb peptide) (Homo sapiens, UniProt Q99828)
# Construct: made in house; host or cells: BL-21 plus RIL cells (E. coli)
# Sequence (Q99828 1-191): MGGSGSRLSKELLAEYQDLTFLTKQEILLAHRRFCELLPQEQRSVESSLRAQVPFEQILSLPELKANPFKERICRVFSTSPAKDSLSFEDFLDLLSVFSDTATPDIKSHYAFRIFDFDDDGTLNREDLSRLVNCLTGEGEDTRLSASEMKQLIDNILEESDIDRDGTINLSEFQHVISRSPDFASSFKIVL
# procedure-text: FP assay, 1536-well qHTS format (primary and confirmatory screen)
# Format: binding
# protocol-conditions: qHTS primary screen hits, Table S2; negative sign = inhibitory curve; several classes where COUNT > 1
Parameter Curve Class: see the listing below.
Could you keep your reply to the number by itself?

C/C(=C\c1ccc2c(c1)OCO2)C1Nc2cccc3cccc(c23)N1	-2.4

Please look up its Curve Class: CCN1C(=O)c2ccccc2[S+]([O-])c2ccc(C(=O)Nc3ncc(C)s3)cc21 (stereo not shown)
-2.4

Please look up its Curve Class: COc1ccc(CC(=O)Nc2ccc(S(=O)(=O)Nc3cc(C)on3)cc2)cc1C.O=C(O)C(F)(F)F
-1.4

Please look up its Curve Class: Cl.O=[N+]([O-])c1ccc(CNc2ccc(S(=O)(=O)Nc3nccs3)cc2)c(O)c1
-1.4

Please look up its Curve Class: Cc1ccnc(NC(=S)N2CCc3ccccc3C2)c1.O=C(O)C(F)(F)F
-2.4

Please look up its Curve Class: CC(=O)N1CCN(c2ccc(OCc3nn(C)c(C)c3-c3cccc4c(CCCOc5cccc6ccccc56)c(C(=O)O)n(Cc5cccnc5)c34)cc2)CC1
-2.4

Please look up its Curve Class: Cl.NS(=O)(=O)c1cccc(Cc2c(-c3ccc(F)c(F)c3)nn(-c3nc(C(=O)O)cs3)c2O)c1
-2.4
